Data origin, for the record: patent US7713994B2

- Test system: MCF-7
- experimental-protocol: Cytotoxicity assay (SRB), MCF-7
- Type: cell-based
- condition-context: Homo sapiens, MCF7, 72 h, read-out: In Vitro Cellular Activity IC50 MCF-7
I'd be grateful if you could share measured pIC50 for these entries.
Friendly reminder that pIC50 comes from taking -log10 of the concentration in mol/L.

Readout pIC50 for CCOP(=O)(OCC)c1ccc2c(c1)/C(=C/Nc1ccc(N3CCN(C)CC3)cc1)C(=O)NC2=O [Example 284] , test system MCF-7, was 4.92

Readout pIC50 for CN(C)NC(=O)Cc1ccc(N/C=C2\C(=O)NC(=O)c3ccc(Br)cc32)cc1 [Example 283] , test system MCF-7, was 5.01

Readout pIC50 for C=CC(=O)Nc1ccc(CN/C=C2\C(=O)NC(=O)c3ccc(Br)cc32)cc1 [Example 322] , test system MCF-7, was 6.62

---

Counter-ions that a name gives are not always drawn.
I'd be grateful if you could share measured melting point for these entries.

The value of melting point measured for the compound CO[C@@H]1CCN(Cc2ccc(N/C=C3\C(=O)NC(=O)c4ccc(I)cc43)cc2)C1 turned out to be 160 to 161 °C

The value of melting point measured for the compound C[C@@H]1CN(c2ccc(N/C=C3\C(=O)NC(=O)c4ccc(I)cc43)cc2F)C[C@H](C)N1 turned out to be 173 to 174 °C

The value of melting point measured for the compound O=C1NC(=O)c2ccc(I)cc2/C1=C/Nc1ccc(CN2CCCC2)cc1 turned out to be 186 to 187 °C

The value of melting point measured for the compound O=C1NC(=O)c2ccc(Br)cc2C1=CNc1ccc(-c2c[nH]cn2)cc1 turned out to be > 300 °C (dec.)

The value of melting point measured for the compound CCCOc1cnc(CN/C=C2\C(=O)NC(=O)c3ccc(-c4ccco4)cc32)cc1O turned out to be 288 to 290 °C (dec.)

The value of melting point measured for the compound O=C1NCc2ccccc2/C1=C/Nc1ccc(-c2c[nH]cn2)cc1 turned out to be 151 to 152 °C (dec.)

The value of melting point measured for the compound COc1ccc(CN/C=C2\C(=O)NC(=O)c3ccc(I)cc32)cc1O (as salt: hydrochloride) turned out to be 209 to 210 °C

The value of melting point measured for the compound O=C1NC(=O)c2ccccc2/C1=C/NCc1cccc(O)c1 turned out to be 261 to 262 °C

---

- experimental-target: cyclin D1/cdk 4 enzyme (Homo sapiens)
- Construct: made in house; host or cells: Sf9 insect cells, recombinant baculovirus
- Sequence (P11802 whole entry, species assumed): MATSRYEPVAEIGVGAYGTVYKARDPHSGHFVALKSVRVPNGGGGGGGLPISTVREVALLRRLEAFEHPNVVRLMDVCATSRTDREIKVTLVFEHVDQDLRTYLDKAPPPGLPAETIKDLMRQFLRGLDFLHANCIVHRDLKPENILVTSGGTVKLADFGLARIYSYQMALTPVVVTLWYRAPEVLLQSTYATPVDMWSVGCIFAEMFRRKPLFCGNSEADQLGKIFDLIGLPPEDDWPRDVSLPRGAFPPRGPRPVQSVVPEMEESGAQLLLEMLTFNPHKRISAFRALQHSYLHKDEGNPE
- Sequence (P24385 whole entry partner, species assumed): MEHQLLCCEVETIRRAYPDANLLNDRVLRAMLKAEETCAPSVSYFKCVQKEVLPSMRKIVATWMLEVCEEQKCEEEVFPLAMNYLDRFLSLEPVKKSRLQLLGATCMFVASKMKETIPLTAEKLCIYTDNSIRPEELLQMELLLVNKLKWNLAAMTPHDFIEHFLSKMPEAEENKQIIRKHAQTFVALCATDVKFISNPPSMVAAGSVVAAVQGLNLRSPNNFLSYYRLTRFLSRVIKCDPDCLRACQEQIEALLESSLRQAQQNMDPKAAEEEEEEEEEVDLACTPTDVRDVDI
- experimental-protocol: CDK4 ELISA kinase assay (phospho-Rb ser 795 detection)
- Assay type: biochemical
- condition-context: In Vitro Enzyme Assays, 200 μM ATP, read-out: CDK4 IC50
assay-metric: pIC50
Friendly reminder that pIC50 comes from taking -log10 of the concentration in mol/L.

The value of pIC50 measured for the molecule CC(C)N1CCN(c2ccc(N/C=C3\C(=O)NC(=O)c4ccc(I)cc43)cc2)CC1 [Example 386] turned out to be 6.22

The value of pIC50 measured for the molecule CC(=O)Nc1ccc(CN/C=C2\C(=O)NC(=O)c3ccc(-c4ccsc4)cc32)cc1O [Example 145] turned out to be 8.40

The value of pIC50 measured for the molecule CN(C)C/C=C/C(=O)Nc1ccc(CN/C=C2\C(=O)NC(=O)c3ccc(I)cc32)cc1O [Example 359] turned out to be 7.70

The value of pIC50 measured for the molecule O=C1NC(=O)c2ccc(Br)cc2/C1=C/NCCCN1CCCC1=O [Example 311] turned out to be 5.07

The value of pIC50 measured for the molecule O=C1NC(=O)c2ccc(I)cc2/C1=C/Nc1ccc(N2CCN(CC3CC3)CC2)nc1 [Example 415] turned out to be 5.82

The value of pIC50 measured for the molecule CN1CCC(c2ccc(N/C=C3\C(=O)NC(=O)c4ccc(I)cc43)cc2)CC1 [Example 239] turned out to be 6.51

The value of pIC50 measured for the molecule CN1CCCC1c1ccc(N/C=C2\C(=O)NC(=O)c3ccc(-c4ccoc4)cc32)cc1 (centres unmarked) [Example 451] turned out to be 7.22

The value of pIC50 measured for the molecule O=C1NC(=O)c2ccc(I)cc2/C1=C/Nc1ccc(N2CCC(C(=O)O)CC2)cc1 [Example 431] turned out to be 5.89

---

- experimental-target: cyclin D1/cdk 4 enzyme (Homo sapiens)
- Construct: made in house; host or cells: Sf9 insect cells, recombinant baculovirus
- experimental-protocol: CDK4 ELISA kinase assay (phospho-Rb ser 795 detection)
- Assay type: biochemical
- condition-context: In Vitro Enzyme Assays, 200 μM ATP, read-out: CDK4 IC50
pIC50: −log10 of the molar value.
Criterion: pIC50 meeting or surpassing 6. Met: true. Not met: false.

Threshold query (pIC50 >= 6) on CN1CCN(c2ccc(N/C=C3\C(=O)NC(=O)c4ccc(C(=O)N(C)C)cc43)cc2)CC1
false

Threshold query (pIC50 >= 6) on CC(CN(C)C)N1CCN(c2ccc(N/C=C3\C(=O)NC(=O)c4ccc(I)cc43)cc2)CC1 (centres unmarked)
true

Threshold query (pIC50 >= 6) on O=C1NC(=O)c2ccc(I)cc2/C1=C/Nc1ccc(N2CCN(CCO)CC2)cc1
true

Threshold query (pIC50 >= 6) on CCCOc1ccc(CN/C=C2\C(=O)NC(=O)c3ccc(I)cc32)cc1OC(=O)CCl
false

Threshold query (pIC50 >= 6) on CCCNc1ccc(CN/C=C2\C(=O)NC(=O)c3ccc(I)cc32)cc1O
true

Threshold query (pIC50 >= 6) on NS(=O)(=O)c1ccc(CN/C=C2\C(=O)NC(=O)c3ccc(Br)cc32)cc1
true

Threshold query (pIC50 >= 6) on O=C1NC(=O)c2ccc(Br)cc2/C1=C/c1cc(Br)c(O)c(Br)c1
false

---

- Tested on: LoVo
- experimental-protocol: Cytotoxicity assay (SRB), LoVo
- Format: cell-based
- condition-context: Homo sapiens, LoVo, 72 h, LoVo cells, 3 days, SRB; read-out: In Vitro Cellular Activity IC50 LOVO
I'd be grateful if you could share measured pIC50 for these entries.
Friendly reminder that pIC50 comes from taking -log10 of the concentration in mol/L.

The value of pIC50 measured for the molecule CCCCN(C)CCN(C)c1ccc(NC=C2C(=O)NC(=O)c3ccc(Br)cc32)cc1 (stereo in doubt) turned out to be 5.33

The value of pIC50 measured for the molecule Cn1ccc(CN/C=C2\C(=O)NC(=O)c3ccc(I)cc32)cc1=O turned out to be 5.48

The value of pIC50 measured for the molecule COc1cccc(-c2ccc3c(c2)C(=CNCc2ccc(S(N)(=O)=O)cc2)C(=O)NC3=O)c1 turned out to be 4.82

The value of pIC50 measured for the molecule O=C1NC(=O)c2ccc(-c3ccoc3)cc2/C1=C/Nc1ccc(CN2CCC[C@H]2CO)cc1 turned out to be 5.70

The value of pIC50 measured for the molecule COc1ccc(NC=C2C(=O)NCc3cc(-c4cc[nH]c4)ccc32)cc1 turned out to be 4.62

The value of pIC50 measured for the molecule CCCN(Cc1ccc(NC=C2C(=O)NC(=O)c3ccccc32)cc1)CC1CC1 turned out to be 4.66

The value of pIC50 measured for the molecule Cc1ccc2c(c1)CNC(=O)C2=CNc1ccc(N2CCOCC2)cc1 turned out to be 4.41

The value of pIC50 measured for the molecule O=C1NC(=O)c2ccc(I)cc2/C1=C/NCc1ccc(-c2ccccn2)c(O)c1 turned out to be 6.72

---

- experimental-target: cyclin D1/cdk 4 enzyme (Homo sapiens)
- Construct: made in house; host or cells: Sf9 insect cells, recombinant baculovirus
- experimental-protocol: CDK4 ELISA kinase assay (phospho-Rb ser 795 detection)
- Type: biochemical
- condition-context: In Vitro Enzyme Assay, cyclin D1/cdk 4, read-out: CDK4 IC50
Could you please mark yes (1) for values of IC50 below 200 nM and no (0) for values at or above it?

Is IC50 of N#CCc1ccc(NC=C2C(=O)NC(=O)c3ccccc32)cc1 strictly below 200 nM?
no (0)

Is IC50 of O=Cc1ccc(-c2ccc3c(c2)/C(=C/Nc2ccc(CN4CCCCC4)cc2)C(=O)NC3=O)o1 strictly below 200 nM?
no (0)

Is IC50 of O=C1NC(=O)c2ccc(I)cc2/C1=C/NCc1cc(O)c(-c2ccoc2)cn1 strictly below 200 nM?
yes (1)

Is IC50 of CC(C#N)=C(C)c1ccc2c(c1)C(=CNc1ccc(N3CCN(C)CC3)cc1)C(=O)NC2=O strictly below 200 nM?
no (0)

Is IC50 of CN1CCN(c2ccc(NC=C3C(=O)NC(=O)c4ccc(-c5ccc(Cl)cc5)cc43)cc2)CC1 strictly below 200 nM?
no (0)

Is IC50 of N#CCc1ccc(NC=C2C(=O)NC(=O)c3ccc(C=Cc4ccncc4)cc32)cc1 strictly below 200 nM?
no (0)

Is IC50 of O=C1NC(=O)c2ccccc2C1=CNc1ccc(N2CCN(CC3CCC3)CC2)cc1 strictly below 200 nM?
no (0)

Is IC50 of NS(=O)(=O)c1ccc(CNC=C2C(=O)NC(=O)c3ccc(-c4cccc(-c5ccccc5)c4)cc32)cc1 strictly below 200 nM?
no (0)

Is IC50 of O=C1NC(=O)c2ccc(I)cc2/C1=C/NCc1ccc(NC(=O)c2ccco2)c(O)c1 strictly below 200 nM?
no (0)

Is IC50 of O=C1NC(=O)c2ccc(-c3cccc4cccnc34)cc2C1=CNCc1ccc(O)c(O)c1 strictly below 200 nM?
no (0)

Is IC50 of CC(=O)c1cccc(-c2ccc3c(c2)C(=CNCc2ccc(O)c(O)c2)C(=O)NC3=O)c1 strictly below 200 nM?
no (0)

Is IC50 of COCCn1ccc(-c2ccc3c(c2)C(=CNc2ccc(N4CCN(C)CC4)cc2)C(=O)NC3=O)c1 strictly below 200 nM?
yes (1)

Is IC50 of N#CCc1ccc(NC=C2C(=O)NC(=O)c3ccc(-c4ccccc4F)cc32)cc1 strictly below 200 nM?
no (0)

Is IC50 of O=C1NC(=O)c2ccc(-c3ccco3)cc2/C1=C/Nc1ccc(CN2CCC[C@H]2CO)cc1 strictly below 200 nM?
yes (1)

Is IC50 of NS(=O)(=O)c1ccc(CNC=C2C(=O)NC(=O)c3ccc(-c4cc[nH]c4)cc32)cc1 strictly below 200 nM?
no (0)
